Every entry's value here was drawn from patent US20090221680.

Molecular target: thrombin (alpha-thrombin) (Homo sapiens, UniProt P00734;P00734 P00734:315-363,P00734:364-622)
Experiment: filter; 10 nM thrombin
# if measured binding signal < 20 % bound: y  # else: n

Example results:
Ask | is_below(binding signal, 20 % bound) for TCCCTGATCCTTAGGCTAGGTTGGGTGGGGTGGTGGCTGAGGATCGATC (ssDNA) [AMX(398)_B5] ?
Reply | y

Ask | And what about the binder TCCCATCGATCCGGGGTATTCTTATTTCTGGGTGGCTGAGGATCGATC (ssDNA) [AMX(398)_E1] ?
Reply | n

Ask | Now the same for TCCCAAGGATCCGGGGTAGTTAGTGGCTGAGGTGGCTGAGGATCGATC (ssDNA) [AMX(398)_C2]
Reply | y

Next:
Ask | Hello, is binding signal of the following binder strictly smaller than 20 % bound? TCCCGGATCTGTGGTAGGTTTGTTGGGTTGGGTGGCTGAGGATCGATC (ssDNA) [AMX(398)_E12]
Reply | n

Ask | Another binder to look at: TCCCGATTTCGATTCTGGTAGTGTTTTCTGGGTGGCTGAGGATCGATC (ssDNA) [AMX(399)_E3]
Reply | y
